These data points were gathered from patent US20070275977A1.

- test.name: Brain concentrations in mice after i.v. or p.o. administration, LC-MS
- Format: in vivo
- condition.set: mouse, brain, iv, 0.5 mg/kg i.v. of administered compound, 0.5 h, read-out: piperazine-N-ox analyzed in brain
value.kind: concentration at 0.5 h (ng/g)
All answers are understood in ng/g, so give the number only.

Indicate the recorded concentration at 0.5 h value for this compound: [O-][N+]1(Cc2cncc(-c3ccc(F)cc3)c2)CCN(c2cccc3c2OCCO3)CC1 [piperazine N-oxide]
4.4

* * *

- test.name: Volume of distribution measured in mice
- Format: in vivo
- condition.set: plasma; calculated for an average person weighing 70 kg from mouse VD
Vd values for the molecules below.
All answers are understood in L, so give the number only.

Fc1ccc(-c2cncc(CN3CCN(c4cccc5c4OCCO5)CC3)c2)cc1 [SLV313, reference compound]
350

Proceeding to the next molecule to report its Vd.
Indicate the recorded Vd value for this molecule: [O-][n+]1cc(CN2CCN(c3cccc4c3OCCO4)CC2)cc(-c2ccc(F)cc2)c1 [pyridine N-oxide]
70
